Target: USP5 (Homo sapiens, UniProt P45974)
Sequence (P45974 1-858): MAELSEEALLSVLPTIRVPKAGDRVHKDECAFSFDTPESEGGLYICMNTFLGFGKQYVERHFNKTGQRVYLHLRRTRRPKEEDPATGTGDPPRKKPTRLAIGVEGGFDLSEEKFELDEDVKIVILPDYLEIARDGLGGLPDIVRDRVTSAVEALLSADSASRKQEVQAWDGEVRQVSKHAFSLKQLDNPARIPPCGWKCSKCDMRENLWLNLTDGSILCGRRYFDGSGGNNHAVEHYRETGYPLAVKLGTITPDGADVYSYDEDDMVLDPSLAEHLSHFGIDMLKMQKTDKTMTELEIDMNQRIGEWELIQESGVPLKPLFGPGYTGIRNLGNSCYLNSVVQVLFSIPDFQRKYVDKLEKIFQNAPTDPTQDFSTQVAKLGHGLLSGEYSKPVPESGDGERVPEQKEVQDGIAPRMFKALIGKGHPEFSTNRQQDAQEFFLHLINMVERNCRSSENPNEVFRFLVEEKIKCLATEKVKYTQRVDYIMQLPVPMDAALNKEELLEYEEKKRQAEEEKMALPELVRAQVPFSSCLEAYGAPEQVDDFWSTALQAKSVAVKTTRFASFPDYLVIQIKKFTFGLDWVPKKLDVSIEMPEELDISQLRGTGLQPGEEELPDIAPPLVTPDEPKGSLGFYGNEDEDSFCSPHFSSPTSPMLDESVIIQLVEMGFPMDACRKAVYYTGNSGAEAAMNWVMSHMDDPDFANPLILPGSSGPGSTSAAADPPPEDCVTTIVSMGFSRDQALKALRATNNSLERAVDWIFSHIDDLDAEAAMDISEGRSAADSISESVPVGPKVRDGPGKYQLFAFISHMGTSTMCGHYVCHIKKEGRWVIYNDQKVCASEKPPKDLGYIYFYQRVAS
Assay: DUB/cathepsin selectivity biochemical assay
assay.readout: IC50

Log: USP5 (Homo sapiens, UniProt P45974), compound C[C@@H]1[C@H]2CCN(C(=O)c3ncc(-c4ccnc(C#N)c4)o3)[C@H]2CN1C#N , IC50 = > 300 µM
